test system: ULK1

# COMPOUND, Kd
records = [
    ("CCCc1ccc(S(=O)(=O)NC2CCN(c3ccnc(Nc4ccc(OC)cc4)n3)C2)cc1 (stereo not shown)", "> 10 µM"),
]

----------
tested on: ERBB4; conditions: concentration: 1 μM, replicates: in singlicate; n = 1
Kindly return fulfilled if reported %Inh is no lower than 40%; return not fulfilled if it is lower.

# MOLECULE, CLASSIFICATION
data = [
    ("Fc1cccc(COc2ccc(Nc3ncnc4sc(-c5ccc[nH]5)cc34)cc2Cl)c1", "fulfilled"),
    ("CSc1nn2c(=O)cc(N3CCOCC3)nc2n1Cc1cccc(Cl)c1Cl", "not fulfilled"),
    ("Fc1ccc(-c2ncn(CCCNCc3ccccc3)c2-c2ccncc2)cc1", "not fulfilled"),
    ("CSc1ccc(NC2=C(c3ccccc3Cl)C(=O)NC2=O)cc1", "not fulfilled"),
    ("CNc1nccc(-c2c(-c3ccc(F)cc3)ncn2CCCN2CCOCC2)n1", "not fulfilled"),
    ("Clc1cc(Nc2ncnc3cc[nH]c23)ccc1OCc1ccccn1", "fulfilled"),
    ("Cc1ccc(NC(=O)c2cccc(C#N)c2)cc1-c1ccc(C(=O)Nc2ccncc2)cc1", "not fulfilled"),
    ("FC(F)(F)c1ccc(-c2nn3ncccc3c2-c2ccnc(Nc3cccc(C(F)(F)F)c3)n2)cc1", "not fulfilled"),
    ("O=C(CCO)NCCn1ccc2ncnc(Nc3ccc(Oc4cccc(C(F)(F)F)c4)c(Cl)c3)c21", "fulfilled"),
    ("CS(=O)(=O)CCNCc1ccc(-c2ccc3ncnc(Nc4ccc(OCc5ccccc5)c(Cl)c4)c3c2)o1.Cl", "fulfilled"),
    ("COc1ccc(Nc2nccc(N3CCC(NC(=O)Nc4ccc5c(c4)OCO5)C3)n2)cc1 (stereo not drawn)", "not fulfilled"),
    ("CCC(CC)(CC)n1cnc2c(N)ncnc21", "not fulfilled"),
    ("Clc1cccc(-c2nc(Nc3ccncc3)c3ccccc3n2)c1", "not fulfilled"),
    ("Fc1cccc(COc2ccc(Nc3ncnc4nn5ccccc5c34)cc2Cl)c1", "fulfilled"),
    ("O=C(NCCCN1CCCC1=O)c1cnc(NCc2cc(Cl)ccc2Cl)nc1NC1CCNCC1", "not fulfilled"),
    ("O=C(Nc1ccccc1F)NC1CCN(c2ccnc(Nc3ccc(F)cc3)n2)C1 (stereo not drawn)", "not fulfilled"),
    ("CC(C)(C)OC(=O)NC1CCCN(c2cc(-c3ccc4c(N)n[nH]c4c3)nc(N)n2)C1 (stereo not drawn)", "not fulfilled"),
    ("C[C@@H]1CCN(C(=O)CO)C[C@@H]1N(C)c1ncnc2[nH]ccc12", "not fulfilled"),
    ("CC(C)N1CCC(n2cnc(-c3ccc(F)cc3)c2-c2ccnc(N)n2)CC1", "not fulfilled"),
    ("CC(C)(C)c1ccc(-n2cnc3c(N)ncnc32)cc1", "not fulfilled"),
    ("COc1ccc(NC(=O)c2ccc(-c3cc(-c4nnc(C)o4)ccc3C)cc2)cc1", "not fulfilled"),
    ("O=C(Nc1n[nH]c2nc(-c3ccco3)c(Br)cc12)c1ccc(CN2CCCC2)cc1.O=C(O)[C@H](O)[C@@H](O)C(=O)O", "not fulfilled"),
    ("Cc1cccc(-c2nc(Nc3ccc4[nH]nnc4c3)c3ccccc3n2)n1", "not fulfilled"),
    ("COc1ccc(-c2oc3ncnc(N)c3c2-c2ccc(OC)cc2)cc1", "not fulfilled"),
    ("Nc1nc(-c2cccnc2)c(-c2ccnc3ccccc23)s1", "not fulfilled"),
    ("Nc1nc(-c2ccccn2)c(-c2ccnc3ccccc23)s1", "not fulfilled"),
    ("CN1CCC(n2cnc(-c3ccc(F)cc3)c2-c2ccnc(NC3CCNCC3)n2)CC1", "not fulfilled"),
    ("CC(=O)Nc1n[nH]c2ncc(-c3ccccc3)cc12", "not fulfilled"),
    ("Cn1ccc2ncnc(Nc3ccc(Oc4cccc(Cl)c4)c(Cl)c3)c21", "fulfilled"),
    ("COc1cc2ncnc(Nc3ccc(OCc4ccccc4Br)c(Cl)c3)c2cc1OC.Cl", "fulfilled"),
    ("O=c1cc(N2CCOCC2)nc2n(Cc3cccc(Cl)c3)ccn12", "fulfilled"),
    ("Cl.c1ccc(Cn2ncc3cc(Nc4ncnc5ccccc45)ccc32)cc1", "fulfilled"),
    ("Cl.Cl.c1ccc(-c2cc3ccncc3cc2OC2CCNCC2)cc1", "not fulfilled"),
    ("Cl.O=S(=O)(c1cccc(F)c1)c1ccc(Nc2ncnc3cc(Br)sc23)cc1Cl", "fulfilled"),
    ("Cn1cc(-c2ccc3c(c2)CCN3C(=O)Cc2cccc(C(F)(F)F)c2)c2c(N)ncnc21", "not fulfilled"),
]

----------
test system: BMX; details: concentration: 1 μM, replicates: in singlicate; n = 1
Entries are sorted into classes by %Inh as follows: low range = under 5%, mid range = from 5% up to 10%, high range = 10% and over

# SMILES_INPUT, CLASSIFICATION
records = [
    ("O=C(Nc1ccccc1)Nc1ccc(Oc2ccc3nccn3n2)cc1", "mid range"),
    ("COc1ccc(NC(=O)Nc2ccc(C)c(-c3ccc(C(=O)Nc4ccncc4)cc3)c2)cc1", "high range"),
    ("COc1cc2c(Nc3cccc(NC(=O)c4ccccc4)c3)ncnc2cc1OCCCN1CCOCC1", "high range"),
    ("Cl.Fc1ccccc1COc1ccc(Nc2ncnc3ccc(-c4nnc(C(F)(F)F)o4)cc23)cc1Cl", "low range"),
    ("NC(=O)c1sc(-n2cnc3ccccc32)cc1OCc1ccccc1F", "mid range"),
    ("Nc1nc(-c2ccccn2)c(-c2ccnc3ccccc23)s1", "mid range"),
    ("Cl.c1ccc(Cn2ccc3cc(Nc4ncnc5ccccc45)ccc32)cc1", "high range"),
    ("CCC(CC)(CC)n1cnc2c(N)ncnc21", "low range"),
]

----------
tested on: LIMK2

# COMPOUND, MEASURED_ON, Kd
measured = [
    ("CCCc1ccc(S(=O)(=O)NC2CCN(c3ccnc(Nc4ccc(OC)cc4)n3)C2)cc1 (stereo not shown) [GSK1379737]", "LIMK2", "> 10 µM"),
]

----------
tested on: EIF2AK1; settings: concentration: 1 μM, replicates: in singlicate; n = 1

# COMPOUND, %Inh
records = [
    ("FC(F)(F)c1cc(Nc2nccc(-c3c(-c4ccc(Cl)cc4)nn4ncccc34)n2)ccc1Cl [GW829351]", "0%"),
    ("Cc1cc(N2CCC(NS(=O)(=O)c3ccc(F)cc3)CC2)nc(Nc2cccc(C#N)c2)n1.O=C(O)C(F)(F)F [GSK1653537]", "0%"),
    ("Nc1n[nH]c2nnc(-c3ccccc3)cc12 [SB-517389]", "13%"),
    ("CC(C)N1CCC(n2cnc(-c3ccc(F)cc3)c2-c2ccnc(N)n2)CC1 [SB-223132]", "0%"),
]

----------
system: ADCK4; details: concentration: 1 μM, replicates: in singlicate; n = 1
Classify by measured %Inh: y if it is equal to or exceeds 10%, n if it is smaller.

# MOLECULE, MEASURED_ON, CLASSIFICATION
data = [
    ("Nc1nc(-c2ccc3c(N)n[nH]c3c2)cc(N2CCC[C@@H](C(=O)Nc3ccccc3)C2)n1.O=C(O)C(F)(F)F.O=C(O)C(F)(F)F", "ADCK4", "y"),
    ("Cc1cc(N2CCC(NS(=O)(=O)c3ccc(F)cc3)CC2)nc(Nc2cccc(C#N)c2)n1.O=C(O)C(F)(F)F", "ADCK4", "n"),
    ("COc1ccc(NC(=O)c2ccc(-c3cc(-c4nnc(C)o4)ccc3C)cc2)cc1", "ADCK4", "y"),
    ("Cn1ccc2ncnc(Oc3ccc(NC(=O)Nc4cccnc4)c(Cl)c3)c21", "ADCK4", "n"),
    ("CS(=O)(=O)CCNCc1nc(-c2ccc3ncnc(Nc4ccc(OCc5cccc(F)c5)c(Cl)c4)c3c2)cs1.Cl", "ADCK4", "y"),
    ("CN1c2ccc(-c3ccc(C(=O)NCCO)cc3)cc2-c2[nH]ncc2S1(=O)=O", "ADCK4", "n"),
    ("Clc1ccc(-c2cc(-c3c[nH]nc3-c3ccccn3)ccn2)cc1", "ADCK4", "n"),
    ("O=C(Nc1ccccc1)Nc1ccc(Oc2ccc3nccn3n2)cc1", "ADCK4", "n"),
    ("O=C(Nc1ccccc1F)NC1CCN(c2ccnc(Nc3ccc(F)cc3)n2)C1 (stereo not shown)", "ADCK4", "y"),
    ("Cn1cc(-c2ccc3c(c2)CCN3C(=O)Cc2cccc(C(F)(F)F)c2)c2c(N)ncnc21", "ADCK4", "n"),
]

----------
test system: FES; details: concentration: 1 μM, replicates: in singlicate; n = 1
Catalogue of %Inh readings, one per entry.

# COMPOUND, %Inh (%)
measured = [
    ("CSc1nn2c(=O)cc(N3CCOCC3)nc2n1Cc1cccc(Cl)c1Cl", 13),
    ("Cc1ccc(O)cc1Nc1cc(C(F)(F)F)nc2ccc(-c3ccncc3)cc12", 6),
    ("C[C@H]1CC[C@@H](C(=O)Nc2ccccc2)CN1c1cc(-c2ccc3c(N)n[nH]c3c2)nc(N)n1", 9),
    ("O=c1cc(N2CCOCC2)nc2n(Cc3cccc(Cl)c3)ccn12", 0),
    ("CC(C)(C)OC(=O)NC1CCCN(c2cc(-c3ccc4c(N)n[nH]c4c3)nc(N)n2)C1 (centres unmarked)", 0),
    ("CS(=O)(=O)CCNCc1ccc(-c2ccc3ncnc(Nc4ccc(OCc5ccccc5)c(Cl)c4)c3c2)o1.Cl", 0),
    ("O=C(Nc1n[nH]c2nc(-c3ccco3)c(Br)cc12)c1ccc(CN2CCCC2)cc1.O=C(O)[C@H](O)[C@@H](O)C(=O)O", 0),
    ("Fc1ccc(Nc2nccc(-c3c(-c4ccc(Cl)cc4)nn4ncccc34)n2)cc1F", 19),
    ("O=C(CCO)NCCn1ccc2ncnc(Nc3ccc(Oc4cccc(C(F)(F)F)c4)c(Cl)c3)c21", 0),
    ("Nc1nc(-c2ccc3c(N)n[nH]c3c2)cc(N2CCCCC2)n1", 0),
    ("CCCc1ccc(S(=O)(=O)NC2CCN(c3ccnc(Nc4ccc(OC)cc4)n3)C2)cc1 (centres unmarked)", 0),
    ("Nc1nc(-c2ccccn2)c(-c2ccnc3ccccc23)s1", 0),
    ("Cc1cc(N2CCC(NS(=O)(=O)c3ccc(F)cc3)CC2)nc(Nc2cccc(C#N)c2)n1.O=C(O)C(F)(F)F", 26),
    ("Cc1cccc(-c2nc(Nc3ccc4[nH]nnc4c3)c3ccccc3n2)n1", 0),
    ("Cn1ccc2ncnc(Oc3ccc(NC(=O)Nc4cccnc4)c(Cl)c3)c21", 16),
    ("Cl.c1ccc(Cn2ccc3cc(Nc4ncnc5ccccc45)ccc32)cc1", 15),
    ("FC(F)(F)c1cc(Nc2nccc(-c3c(-c4ccc(Cl)cc4)nn4ncccc34)n2)ccc1Cl", 0),
]

Origin of values: paper PMC5540273
